# SYSTEM NAME: tubulin heterodimer (porcine/bovine brain tubulin) ( (porcine or bovine brain), UniProt Q6B856 1-445)
# Sequence (chain, as listed by the source, chain 1 of 2): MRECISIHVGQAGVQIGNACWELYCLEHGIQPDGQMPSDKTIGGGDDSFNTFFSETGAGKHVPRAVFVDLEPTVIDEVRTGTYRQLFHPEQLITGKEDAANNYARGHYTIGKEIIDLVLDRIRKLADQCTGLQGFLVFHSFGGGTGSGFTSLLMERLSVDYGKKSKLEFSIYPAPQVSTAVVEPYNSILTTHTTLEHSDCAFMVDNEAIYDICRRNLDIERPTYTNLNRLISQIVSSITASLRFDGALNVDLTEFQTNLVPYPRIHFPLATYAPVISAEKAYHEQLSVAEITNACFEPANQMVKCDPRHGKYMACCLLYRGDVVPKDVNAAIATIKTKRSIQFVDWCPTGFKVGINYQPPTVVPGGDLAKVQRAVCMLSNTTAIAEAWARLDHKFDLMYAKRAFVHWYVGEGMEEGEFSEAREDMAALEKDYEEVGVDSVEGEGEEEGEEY
# Sequence (Q6B856 whole entry, chain 2 of 2): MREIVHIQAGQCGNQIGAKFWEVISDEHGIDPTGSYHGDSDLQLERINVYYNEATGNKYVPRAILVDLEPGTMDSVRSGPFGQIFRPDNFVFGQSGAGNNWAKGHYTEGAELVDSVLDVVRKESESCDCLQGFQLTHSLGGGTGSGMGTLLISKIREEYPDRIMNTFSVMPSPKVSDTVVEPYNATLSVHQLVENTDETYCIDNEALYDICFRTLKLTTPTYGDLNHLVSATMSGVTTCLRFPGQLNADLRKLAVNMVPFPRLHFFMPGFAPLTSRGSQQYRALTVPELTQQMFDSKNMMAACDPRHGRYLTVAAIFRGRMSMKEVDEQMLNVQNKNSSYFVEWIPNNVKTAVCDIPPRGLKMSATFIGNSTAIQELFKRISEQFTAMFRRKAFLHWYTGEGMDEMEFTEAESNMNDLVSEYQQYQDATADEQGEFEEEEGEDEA
# ASSAY PROCEDURE: ITC
PARAMETER: Kd (µM)

BINDER	Kd, µM
K377E (protein) VANIEERPIKAAIGERKQTFEDYLEEQIQLEEQELKQKQLKEAEGPLPIKAKPKQPFLERGEGLARFTNAKSKFQK	1.3
F338A (protein) VANIEERPIKAAIGERKQTAEDYLEEQIQLEEQELKQKQLKEAEGPLPIKAKPKQPFLKRGEGLARFTNAKSKFQK	0.116

A = EE349RR (protein) VANIEERPIKAAIGERKQTFEDYLEEQIQLRRQELKQKQLKEAEGPLPIKAKPKQPFLKRGEGLARFTNAKSKFQK
B = R378E (protein) VANIEERPIKAAIGERKQTFEDYLEEQIQLEEQELKQKQLKEAEGPLPIKAKPKQPFLKEGEGLARFTNAKSKFQK
C = Y341A (protein) VANIEERPIKAAIGERKQTFEDALEEQIQLEEQELKQKQLKEAEGPLPIKAKPKQPFLKRGEGLARFTNAKSKFQK
Query :: Write the entries in order, lowest recorded Kd first. Put the labels in the requested order and list them out.
Result :: C, A, B
